Tested on: SK-MEL-2 melanoma
Assay: NCI tumour cell line growth inhibition, 48 h
MEASURED QUANTITY: GI50

Record excerpt, results attached:
N#CC(C#N)N=Nc1ccc(Br)cc1 : 8.97 µM
CCn1cc(-c2ccnc3[nH]ccc23)c(-c2cccc(NC(=O)Nc3ccc(OCc4ccccc4)cc3)c2)n1 : 8.14 µM
CS(=O)(=O)CCNCc1ccc(-c2ccc3ncnc(Nc4ccc(OCc5cccc(F)c5)c(C(F)(F)F)c4)c3c2)o1 : 4.51 µM
Cc1nc([C@H]2CC[C@H]3[C@@H]4CCC5=CC(=O)CC[C@]5(C)[C@H]4CC[C@]23C)cs1 : > 100 µM
O=[N+]([O-])c1ccccc1NC1c2ccccc2Oc2ccccc21 : 8.43 µM

Would you be so kind as to report GI50 for each listed record?
1. CN1CCN(c2ccc(Nc3nc(N)c(C(=O)c4ccc5c(c4)OCCO5)s3)cc2)CC1
2. CCCCCCCCCc1cc[n+](CC(=O)c2ccc([N+](=O)[O-])cc2)cc1

4.77 µM
0.565 µM

FYI, the data here is from PubChem BioAssay (NCI).
